Data origin: paper PMC12292233

# assayComment: Distribution of antioxidants in intact soybean oil-in-water emulsions (16-ArN2+ chemical probe, pseudophase kinetic model)
# Type: physicochemical
# conditionSet: [HPCD] = 0.013 M; soybean oil-in-water emulsion, Tween 20; T = 25.0 °C
valueKind: PO^I, partition constant oil-interfacial

Use these answered entries as a reference point.
>>> testresult("CCCOC(=O)c1cc(O)c(O)c(O)c1 [PG, Propyl gallate]")
371
>>> testresult("CCCCCCCCOC(=O)c1cc(O)c(O)c(O)c1 [OG, octyl gallate]")
25

a = CCCCOC(=O)c1cc(O)c(O)c(O)c1 [BG, butyl gallate]
b = CCCCCCCCCCCCOC(=O)c1cc(O)c(O)c(O)c1 [LG, lauryl gallate]
INPUT: Response body: label of entry with the larger PO^I, partition constant oil-interfacial; valid values a , b . Answer by quoting the chosen item's label.
OUTPUT: a

* * *

# assayComment: DPPH radical scavenging activity of gallates in absence and presence of HPCD
# Type: biochemical
# conditionSet: values given as 10^6 × EC50; 0 M HPCD; T = 25 ± 1 °C; reaction time 3600 s; aqueous citric acid/citrate (0.04 M, pH 3)-methanol 50:50 v/v
valueKind: EC50 (µM)

>>> testresult("CCCCOC(=O)c1cc(O)c(O)c(O)c1 [BG, butyl gallate]")
6.02
>>> testresult("CCCOC(=O)c1cc(O)c(O)c(O)c1 [PG, Propyl gallate]")
6.09
>>> testresult("CCCCCCCCOC(=O)c1cc(O)c(O)c(O)c1 [OG, octyl gallate]")
9.02
>>> testresult("O=C(O)c1cc(O)c(O)c(O)c1 [GA, gallic acid]")
8.36

* * *

# assayComment: Distribution of antioxidants in intact soybean oil-in-water emulsions (16-ArN2+ chemical probe, pseudophase kinetic model)
# Assay type: physicochemical
# conditionSet: [HPCD] = 0; soybean oil-in-water emulsion, Tween 20; T = 25.0 °C
valueKind: PO^I, partition constant oil-interfacial

>>> testresult("CCCCCCCCCCCCOC(=O)c1cc(O)c(O)c(O)c1 [LG, lauryl gallate]")
27

P = CCCOC(=O)c1cc(O)c(O)c(O)c1 [PG, Propyl gallate]
Q = CCCCCCCCOC(=O)c1cc(O)c(O)c(O)c1 [OG, octyl gallate]
INPUT: Response body: label of entry with the larger PO^I, partition constant oil-interfacial; valid values P , Q . Answer by quoting the chosen item's label.
OUTPUT: P
(P: 450, Q: 26)
